Listing of recorded fold induction at 0.5 µM by entry.
experiment: cells
conditions: Homo sapiens, SH-SY5Y, 2 h, read-out: FC
Enter a number only.

Use the examples below as a reference point.
{"columns": ["compound", "fold induction at 0.5 µM"],
 "data": [
  ["CCCc1nn(C)c2c(=O)[nH]c(-c3cc(-c4ccc(CC(=O)NO)cc4)ccc3OCC)nc12", 0.8],
  ["CCCc1nn(C)c2c(=O)[nH]c(-c3cc(Cc4ccc(C(=O)NO)cc4)ccc3OCC)nc12", 3.2]
]}

Ask | Quick one: fold induction at 0.5 µM of "CCCc1nn(C)c2c(=O)[nH]c(-c3cc(Cc4ccc(C(=O)NO)cc4F)ccc3OCC)nc12" ?
Reply | 1.1

Ask | Quick one: fold induction at 0.5 µM of "CCCc1nc(C)c2c(=O)[nH]c(-c3cc(Cc4ccc(C(=O)NO)s4)ccc3OCC)nn12" ?
Reply | 0.9

Ask | Quick one: fold induction at 0.5 µM of "CCCc1nn(C)c2c(=O)[nH]c(-c3cc(Cc4ccc(C(=O)NO)c(F)c4)ccc3OCC)nc12" ?
Reply | 2.7
